MEASURED_TARGET: human BCL6 BTB domain (Trx-6xHis-BCL6) (Homo sapiens (Human))
ASSAY_NOTES: HTRF in vitro assay (BCL6 BTB domain / BCOR-AF633 peptide)
Type: binding
EXPERIMENTAL_PARAMETERS: initially generated data (Table 1a); 10 nM Trx-6xHis-BCL6, 1 nM anti-6xHis-Terbium cryptate
A collection of compounds and their measured HTRF pIC50

| COMPOUND | HTRF pIC50 |
| --- | --- |
| C[C@@H](Nc1cc(=O)n(C)c2ccc(Nc3ccnc(Cl)c3C#N)cc12)C(=O)NCCO [Example 3b] | 6.73 |
| Cc1nnc(C(C)Nc2cc(=O)n(C)c3ccc(Nc4ccnc(Cl)c4C#N)cc23)o1 (centres unmarked) [Example 3l] | 6.16 |
| CC(Nc1cc(=O)n(CCN2C(=O)CCC2=O)c2ccc(Nc3ccnc(Cl)c3C#N)cc12)c1ncccn1 (centres unmarked) [Example 1c] | 6.63 |
| C[C@H](CO)Nc1cc(=O)n(C)c2ccc(Nc3ccnc(Cl)c3C#N)cc12 [Example 3j] | 6.05 |
| COC1CCC(NC(=O)[C@@H](C)Nc2cc(=O)n(C)c3ccc(Nc4ccnc(Cl)c4C#N)cc23)CC1 (some centres unmarked) [Example 3i] | 6.36 |
| CC(Nc1cc(=O)n(C)c2ccc(Nc3ccnc(Cl)c3C#N)cc12)c1cc[nH]n1 (centres unmarked) [Example 1t] | 6.00 |
| Cn1c(=O)cc(NC2(C)CCCC2)c2cc(Nc3cc(C(=O)O)nc(Cl)c3C#N)ccc21 [Example 2d] | 6.51 |
| C[C@@H](Nc1cc(=O)n(C)c2ccc(Nc3ccnc(Cl)c3C#N)cc12)C(=O)NCCc1cnn(C)c1 [Example 3m] | 6.06 |

---

MEASURED_TARGET: human BCL6 BTB domain (Trx-6xHis-BCL6) (Homo sapiens (Human))
ASSAY_NOTES: HTRF in vitro assay (BCL6 BTB domain / BCOR-AF633 peptide)
Format: binding
EXPERIMENTAL_PARAMETERS: further generated data (Table 1b); 1 nM Trx-6xHis-BCL6, 0.5 nM anti-6xHis-Terbium cryptate
A collection of molecules and their measured HTRF pIC50

| MOLECULE | HTRF pIC50 |
| --- | --- |
| CC(Nc1cc(=O)n(C)c2ncc(Nc3nc(N4CCC(F)(F)CC4)ncc3Cl)cc12)c1ncccn1 (stereo not shown) [Example 17b] | 6.11 |
| Cn1c(=O)cc(NC(C)(C)c2ncccn2)c2cc(Nc3cc(C(=O)N4CCC4)nc(Cl)c3C#N)ccc21 | 7.78 |
| C[C@@H](Nc1cc(=O)n(C)c2ccc(Nc3cc(C(=O)N4CCC4)nc(Cl)c3C#N)cc12)C1CC1 | 7.02 |
| CC(Nc1nc(=O)n(C)c2ccc(Nc3nc(N4CCC(C(=O)N(C)C)CC4)ncc3Cl)cc12)c1ncccn1 (stereo not shown) [Example 12d] | 6.78 |
| Cn1c(=O)cc(NC(C)(C)c2ncccn2)c2cc(Nc3nc(-n4ccc(C(F)(F)F)n4)ncc3Cl)ccc21 [Example 14d] | 6.44 |
| Cc1ccnc(C(C)Nc2cc(=O)n(C)c3ccc(Nc4ccnc(Cl)c4C#N)cc23)n1 (stereo not shown) | 6.26 |
| CCC(C)(Nc1cc(=O)n(C)c2ccc(Nc3ccnc(Cl)c3C#N)cc12)c1ncccn1 (stereo not shown) [Example 24c] | 6.45 |
| Cn1c(=O)cc(N[C@H](CO)C2CC2)c2cc(Nc3ccnc(Cl)c3C#N)ccc21 [Example 11a] | 6.78 |
| CC(Nc1cc(=O)n(C)c2ccc(Nc3cc(C(=O)N(C)C)nc(Cl)c3C#N)cc12)c1ncccn1 (stereo not shown) [Example 19b] | 6.99 |
| COc1ncc(Cl)c(Nc2ccc3c(c2)c(N[C@H](CO)C2CC2)cc(=O)n3C)n1 [Example 11f] | 6.13 |
| CC(Nc1cc(=O)n(C)c2ccc(Nc3ncnc(Cl)c3Cl)cc12)c1ncccn1 (stereo not shown) [Example 19e] | 6.05 |
| CC(Nc1cc(=O)n(CC2CCOCC2)c2ccc(Nc3ccnc(Cl)c3C#N)cc12)c1ncccn1 (stereo not shown) | 6.58 |
| CNC(=O)c1cc(Nc2ccc3c(c2)c(NC(C)(C)C)cc(=O)n3C)c(C#N)c(Cl)n1 | 6.33 |
| COCCNC(=O)[C@@H](C)Nc1cc(=O)n(C)c2ccc(Nc3ccnc(Cl)c3C#N)cc12 | 6.42 |
| CC(Nc1cc(=O)n(C)c2ncc(Nc3ccnc(Cl)c3Cl)cc12)c1ncccn1 (stereo not shown) | 6.28 |
| CCC(C)(COC)Nc1cc(=O)n(C)c2ccc(Nc3cc(C(=O)NC)nc(Cl)c3C#N)cc12 (stereo not shown) [Example 19f] | 6.40 |
